Values were extracted from patent US20260062443A1.

study-system: Human complement C1s enzyme (Homo sapiens, UniProt P09871)
Sequence (P09871 438-688 limits assumed): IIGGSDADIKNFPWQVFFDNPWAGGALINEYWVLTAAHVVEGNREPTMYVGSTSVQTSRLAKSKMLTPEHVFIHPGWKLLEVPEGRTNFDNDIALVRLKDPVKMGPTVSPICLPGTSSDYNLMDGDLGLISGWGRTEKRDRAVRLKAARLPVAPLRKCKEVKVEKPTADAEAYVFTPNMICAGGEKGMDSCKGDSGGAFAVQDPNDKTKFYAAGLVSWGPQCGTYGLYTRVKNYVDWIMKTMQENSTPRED
Sequence (P09871 16-437 partner limits assumed): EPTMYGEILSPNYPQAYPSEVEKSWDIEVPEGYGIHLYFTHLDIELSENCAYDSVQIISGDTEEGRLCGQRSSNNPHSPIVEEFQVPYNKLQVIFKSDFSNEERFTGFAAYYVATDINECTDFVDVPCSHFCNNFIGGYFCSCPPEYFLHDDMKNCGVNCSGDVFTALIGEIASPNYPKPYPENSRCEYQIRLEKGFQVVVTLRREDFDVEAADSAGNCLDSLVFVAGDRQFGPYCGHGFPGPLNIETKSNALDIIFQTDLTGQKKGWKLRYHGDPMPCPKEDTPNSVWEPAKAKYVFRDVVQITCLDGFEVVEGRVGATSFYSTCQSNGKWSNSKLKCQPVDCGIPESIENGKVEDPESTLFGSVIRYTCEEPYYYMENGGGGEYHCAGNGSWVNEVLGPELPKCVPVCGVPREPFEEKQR
test-method-notes: Human C1s enzyme assay
Assay type: biochemical
measurement-conditions: human complement C1s enzyme 1.16 nM, substrate Z-L-Lys-SBzl 100 μM, 5 min preincubation; read-out: IC50 (Stars), C1s Inhibiting Activity
parameter: IC50

Here are 5 molecules together with their reported answers.
structure-notation	study-system	parameter	reported-measurement
O=C(NCC(=O)N1CC2(C[C@H]1C(=O)NCc1cc3cnccc3[nH]1)OCCO2)c1cccc(Oc2ccccc2)c1	Human complement C1s enzyme (Homo sapiens, UniProt P09871)	IC50	< 100 nM
O=C(NCC(=O)N1C[C@H](OC(F)F)C[C@H]1C(=O)NCc1cc2cnccc2[nH]1)c1cccc(Oc2cccs2)c1	Human complement C1s enzyme (Homo sapiens, UniProt P09871)	IC50	< 100 nM
O=C(NCC(=O)N1C[C@H](OC(F)F)C[C@H]1C(=O)NCc1cc2cnccc2[nH]1)c1ccccc1Oc1ccccc1	Human complement C1s enzyme (Homo sapiens, UniProt P09871)	IC50	> 1000 nM
Cc1ccc(Oc2cccc(C(=O)NCC(=O)N3C[C@H](OC(F)F)C[C@H]3C(=O)NCc3cc4cnccc4[nH]3)c2)cc1	Human complement C1s enzyme (Homo sapiens, UniProt P09871)	IC50	< 100 nM
O=C(NCC(=O)N1CC2(C[C@H]1C(=O)NCc1cc3nccnc3[nH]1)OCCO2)c1ccc2c(c1)Oc1ccccc1S2	Human complement C1s enzyme (Homo sapiens, UniProt P09871)	IC50	> 1000 nM

Query molecule follows.
Please fill in: IC50 reported for `C[C@@H](NC(=O)[C@@H]1C[C@]2(Cc3nccs3)C[C@@H]2N1C(=O)CNC(=O)c1ccc2c(c1)Oc1ccccc1S2)c1cc2cnccc2[nH]1` = < 100 nM
